# assay procedure: survival rescue of mitochondrial mutant cells in low glucose, primary screen, MELAS cybrids, Rieske KO mouse fibroblasts, CellTiter-Glo (AID 1508586);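 note: z relative to plate mean and SD of compound and empty wells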
# measurement conditions: Rieske KO mouse fibroblast survival, CellTiter-Glo 72 h
property name: z-score
Give bare numbers.

compound | z-score
CC[C@H]1OC(=O)[C@H](C)[C@@H](O[C@H]2C[C@@](C)(OC)[C@@H](O)[C@H](C)O2)[C@H](C)[C@@H](O[C@@H]2O[C@H](C)C[C@H](N(C)C)[C@H]2O)[C@](C)(O)C[C@@H](C)[C@@H]2N[C@@H](COCCOC)O[C@H]([C@H]2C)[C@]1(C)O | -0.393
O=c1cc(N2CCOCC2)oc2c(-c3ccccc3)cccc12 | 0.668
CCc1c2c(nc3ccc(O)cc13)-c1cc3c(c(=O)n1C2)COC(=O)[C@]3(O)CC | -0.363
NC(=O)c1ncn(C2OC(CO)C(O)C2O)n1 (stereo not drawn) | 0.486
Cc1c(O)c(=O)n(-c2ccccc2)n1C | -0.0513
COc1cc(OC)c(NC(=O)Nc2cc(C)on2)cc1Cl | 1.34

Can you give me z-score for all of these, one by one?
1. C[C@@H](c1ncncc1F)[C@](O)(Cn1cncn1)c1ccc(F)cc1F
2. CC(CCc1ccc(O)cc1)NCC(O)c1ccc(O)cc1 (stereo not drawn)

1: -0.0394; 2: 0.193

----------
# Tested on: R275C/Slo1WT/beta2
# assay procedure: modulators of BK channel variants, profiling panel, selectivity assay, cell-based, U2OS BacMam, thallium flux, beta subunits (AID 1259406);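 note: initial slope of Thallos dye fluorescence rise after thallium is added; log ratio against the mean of 0.3% DMSO vehicle wells on the same plate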
# measurement conditions: at 30 µM
For each entry below, report its log fold change Tl+ flux value.
One number for each entry.

compound | reading
Cc1cc(S(=O)(=O)c2ccc(Cl)cc2)sc1C(=O)NCC(O)c1ccccc1 (configuration not stated) | -0.00987
CC(=O)C1=C(C)Nc2ccccc2S1 | 0.0465
CON=C(C(=O)N[C@@H]1C(=O)N2C(C(=O)O)=C(COC(N)=O)CS[C@H]12)c1ccco1 | 0.0179
O=S(=O)(CCN1CCN(Cc2ccccc2)CC1)c1ccc(F)cc1 | -0.0289
NNC(=O)Cc1csc2nc(-c3ccccc3)nn12 | 0.0322

# return log fold change Tl+ flux for each item in the list
1. Cc1cc(N=CN(C)C)c2ccccc2n1
2. Oc1c(Cl)c(Cl)c(Cl)c2ccccc12
3. O=c1[nH]nc(N2CCSCC2)[nH]1
4. O=c1c(O[C@@H]2O[C@H](CO)[C@H](O)[C@H](O)[C@H]2O)c(-c2ccc(O)c(O)c2)oc2cc(O)cc(O)c12
5. C/C(=C\C(=O)OCCCCCCCCC(=O)O)C[C@@H]1OC[C@H](C[C@@H]2O[C@H]2[C@@H](C)[C@H](C)O)[C@@H](O)[C@H]1O
6. CN(C)c1ccc(C=NNC(N)=S)c(Cl)c1
7. C=CC1=C(C(=O)O)N2C(=O)[C@@H](NC(=O)C(=NOCC(=O)O)c3csc(N)n3)[C@H]2SC1

-0.0666
0.141
0.014
-0.0201
-0.00127
-0.154
0.00126

----------
Give viability for every item shown.
# assay procedure: ovarian cancer cell viability with rucaparib, profiling panel, oncology-focused library, rucaparib conditional (AID 1508598)
# measurement conditions: patient-derived ovarian cancer cells, CellTiter-Glo viability, 144 h; at 5 µM; OCI-P5x cells; without rucaparib; stronger effect = lower value
The source made the active and inactive calls.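 The calls were made as follows: active = normalized viability below 100% at a tested concentration; inactive = the rest.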

Worked examples follow.
molecule | reading
CC(C)c1onc(-c2c(Cl)cccc2Cl)c1COc1ccc(/C=C/c2cccc(C(=O)O)c2)c(Cl)c1 | 98.8% (active)
NC(=O)Nc1sc(-c2ccc(F)cc2)cc1C(N)=O | 60.3% (active)

For every listed record, write down its viability.
1. CS(=O)c1ccc(-c2nc(-c3ccc(F)cc3)c(-c3ccncc3)[nH]2)cc1 (stereo not given)
2. C[C@@H](N)C1CCC(C(=O)Nc2ccncc2)CC1 (stereo not given in full)
3. Cn1cc(C2=C(c3ccc(Cl)cc3Cl)C(=O)NC2=O)c2ccccc21

["113% (inactive)", "99.6% (active)", "83.9% (active)"]

These entries and their values trace back to PubChem BioAssay.
